# Test system: NCI-H460 lung
# method.notes: NCI tumour cell line growth inhibition, 48 h
value.kind: TGI

Below: 3 compounds and their reported TGI.
Cc1ccnc2[nH]c(-c3cccc4ccccc34)cc(=O)c12 | > 100 µM
Cn1ccnc1Cn1cc(-c2cccc(-c3cn[nH]c3)c2)cn1 | > 100 µM
COC(=O)[C@H](Cc1c[nH]c2ccccc12)NC(=O)OCC1OC(n2cc(C)c(=O)[nH]c2=O)CC1N=[N+]=[N-] (stereo partly specified) | > 100 µM

Query :: Indicate the recorded TGI value for this compound: COc1ccc2oc(=O)cc(C3c4ccc([nH]4)C(c4cc(=O)oc5ccc(OC)cc45)c4ccc([nH]4)C(c4cc(=O)oc5ccc(OC)cc45)c4ccc([nH]4)C(c4cc(=O)oc5ccc(OC)cc45)c4ccc3[nH]4)c2c1 (stereo unspecified)
Result :: 10.4 µM

Query :: Indicate the recorded TGI value for this compound: "CCCCCCC/C(=N\N=C(N)N)c1ccc(O)cc1"
Result :: 3.68 µM

Query :: Give the reported value of TGI for this record: "COc1ccc(C(=O)NCCNc2nccc(-c3c(-c4ccc(F)cc4)nc4sccn34)n2)cc1"
Result :: > 100 µM

Query :: State, in one line, measured TGI of "COC(=O)N1c2ccc3c(nc(Cc4ccccc4)n3[C@H]3CCC[C@H](C(=O)O)C3)c2CC[C@@H]1C"
Result :: > 100 µM

Query :: Report TGI for Nc1ncc2ccc3c(ccn3C3CC(O)C(CO)O3)c2n1 (stereo unspecified)
Result :: > 100 µM

Query :: Return TGI (reported value) for this compound: "O=c1c2sc3ccccc3c2nnn1-c1ccc(F)c(Cl)c1"
Result :: > 100 µM

Query :: Determine from records and report TGI for CSC1(C)CC2C(CC1N1CCOCC1)C2(C)C (stereo unspecified)
Result :: > 100 µM

Query :: Output TGI of NC(Cc1ccc(OCc2ccccc2)cn1)C(=O)OCc1ccccc1 (stereo unspecified)
Result :: > 100 µM

Query :: Let me know recorded TGI for "C[C@]12CC[C@H](O)C[C@@H]1CC[C@@H]1[C@@H]2CC[C@]2(C)[C@@H](c3cc(C(F)(F)F)n[nH]3)CC[C@@H]12" , thanks.
Result :: 15.3 µM

Query :: Please indicate TGI recorded for "COc1ccc(C(=O)/C=C/c2ccc(OCc3ccc(Cl)cc3)cc2)cc1OC"
Result :: > 1000 µM

Query :: Given "C[C@]12CC[C@@H]3c4ccc(OS(N)(=O)=O)cc4CC[C@H]3[C@@H]1CCC2=O" , respond with its TGI.
Result :: > 100 µM

Query :: Tell me TGI reported for "Cc1ccc2nc3ccccc3c(NCc3ccccc3)c2c1"
Result :: 7.44 µM

Query :: Retrieve TGI measured for "COc1cccc(NC(=O)c2c(SC)c(C#N)c(=O)n(N)c2N)c1" and print it.
Result :: > 100 µM

Query :: Give reported TGI value for "CC1=C2[C@H]3OC(=O)[C@@H](C)[C@@H]3CC[C@@]2(C)C=CC1=O"
Result :: > 100 µM

Query :: Provide measured TGI value, entry: "Clc1ccc(Cl)c(N=Nc2cc3c4c(c2)CCCN4CCC3)c1"
Result :: > 10 µM

====

# Tested on: NCI-H460 lung
Thanks in advance; please answer with one of these: Y for active, N for inactive

COc1ccc(C(=O)/C=C/c2ccc(OCc3ccc(Cl)cc3)cc2)cc1OC | N

Query :: What classification did O=C(CC1(O)C(=O)N(Cc2ccccc2)c2ccc(Br)cc21)c1ccc(C(=O)NCC2CCC3(CC2)OOC2(CCCCC2)OO3)cc1 (centres undefined) end up with in this test?
Result :: N

Query :: Assay result, entry "O=C(O)[C@@H]1CCCN1Cc1cc2cc3c(cc2c2cc(OCc4ccccc4)ccc12)OCO3" — outcome?
Result :: N

Query :: Which outcome was assigned to "COc1cc2c3c(n(CCCN(C)C)c(=O)c2cc1OC)-c1cc2c(cc1C3=O)OCO2" in this test?
Result :: Y

Data provenance is PubChem BioAssay (NCI).
